Origin of measurements: patent US20220401514A1

A collection of sequences and their measured log10 of MIC50
Tested on: Enterobacter cloacae
Assay: microbe, parasite or virus in culture
Assay type: cell-based
Settings: E. cloacae isolates (n per peptide in table)
Reminder: these figures are log10 of reported MIC50, in µg/mL before transformation.

Answered cases to consult:
| residues | log10 of MIC50 |
| --- | --- |
| MARSRRRMSKRSSRRSFRKYAKSHKKNFKARSMRGGIRL [Ecp2] | -0.60 |
| MSLRRHKLSRKASKRIFRKGASRTKTLNTRATPMRGGFRI [Chp9] | 0.60 |
| MARRYRLSRRRSRRLFSRTALRMHRRNRLRRIMRGGIRF [Chp4] | -0.30 |
| MRRPRKMNYKKSKRMFSRTAARTHRKNSLRGSRPMRGGIRL [Gkh1] | 0.00 |

Request the reported log10 of MIC50 associated with MKRRKLSKKKSRKIFTRGAVNVKKRNLRARPMRGGFRI [Chp10]
-0.60

Request the reported log10 of MIC50 associated with MRRRRLSRRTSRRFFRKGLKVRRRNLRARPMRGGFRI [Unp2]
-0.60

Request the reported log10 of MIC50 associated with MARSRRRMSKRSSRRSFRKYAKTHKRNFKARSMRGGIRL [Ecp1]
-0.30

Request the reported log10 of MIC50 associated with MVRRRRLRRRISRRIFRRTVARVGRRRRSFRGGIRF [Chp1]
0.30

Request the reported log10 of MIC50 associated with MARRRYRLPRRRSRRLFSRTALRMHPRNRLRRIMRGGIRF [Chp6]
-0.30

Request the reported log10 of MIC50 associated with MRLKMARRRYRLPRRRSRRLFSRTALRMHPRNRLRRIMRGGIRF [Chp2]
-0.30

Request the reported log10 of MIC50 associated with MARSRRRMSKRSSRRSFRKYAKTHKKNFKARSMRGGIRL [Ecp3]
-0.30

Request the reported log10 of MIC50 associated with MLTVWSDTPTIKRRKDMYRKRMSRKKSKKVFAKTAMKVNKRNHVKPMRGGYRI [Gkh3]
0.60

Request the reported log10 of MIC50 associated with MSKKRSRMSRRRSKKLFSKTALRTKSVNTRPPMRGGFRF [Chp8]
0.30
